Target: wild-type HER2 transformed Ba/F3 cells (Homo sapiens, UniProt P04626)
Construct: expressed in transfected cells; host or cells: Ba/F3
Sequence (P04626 23-1255): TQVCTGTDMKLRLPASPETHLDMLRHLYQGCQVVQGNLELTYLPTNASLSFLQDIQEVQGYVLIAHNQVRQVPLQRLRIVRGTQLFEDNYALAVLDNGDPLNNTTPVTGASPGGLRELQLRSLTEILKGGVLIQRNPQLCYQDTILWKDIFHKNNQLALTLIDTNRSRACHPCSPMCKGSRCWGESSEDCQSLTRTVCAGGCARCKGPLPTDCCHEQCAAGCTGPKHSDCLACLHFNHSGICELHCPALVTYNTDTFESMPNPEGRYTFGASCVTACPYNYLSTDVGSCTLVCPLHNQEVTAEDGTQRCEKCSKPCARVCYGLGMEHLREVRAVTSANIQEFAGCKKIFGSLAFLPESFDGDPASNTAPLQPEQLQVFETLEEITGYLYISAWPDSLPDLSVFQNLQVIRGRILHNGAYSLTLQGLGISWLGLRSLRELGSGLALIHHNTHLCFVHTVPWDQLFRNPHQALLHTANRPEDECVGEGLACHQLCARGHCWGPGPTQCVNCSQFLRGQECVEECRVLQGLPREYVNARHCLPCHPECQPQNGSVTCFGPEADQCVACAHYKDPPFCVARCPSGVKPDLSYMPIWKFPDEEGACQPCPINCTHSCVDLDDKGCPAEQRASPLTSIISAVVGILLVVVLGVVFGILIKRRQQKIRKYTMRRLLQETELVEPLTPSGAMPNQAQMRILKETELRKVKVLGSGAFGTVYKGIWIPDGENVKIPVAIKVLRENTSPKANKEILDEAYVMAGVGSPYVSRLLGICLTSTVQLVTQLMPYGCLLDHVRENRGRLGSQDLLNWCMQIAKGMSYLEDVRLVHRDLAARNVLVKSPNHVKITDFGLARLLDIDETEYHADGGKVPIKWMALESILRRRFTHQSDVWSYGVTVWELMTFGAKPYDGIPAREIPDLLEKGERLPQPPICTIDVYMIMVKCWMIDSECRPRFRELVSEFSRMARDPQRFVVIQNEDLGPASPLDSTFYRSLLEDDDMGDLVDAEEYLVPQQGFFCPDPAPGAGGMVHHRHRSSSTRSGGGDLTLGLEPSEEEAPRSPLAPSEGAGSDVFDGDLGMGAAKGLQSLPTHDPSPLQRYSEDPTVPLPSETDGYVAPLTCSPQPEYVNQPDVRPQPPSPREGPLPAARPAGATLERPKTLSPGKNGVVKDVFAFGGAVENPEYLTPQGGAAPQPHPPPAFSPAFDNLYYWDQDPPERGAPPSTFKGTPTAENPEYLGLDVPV
Assay: Proliferation inhibition assay, wild-type HER2 transformed Ba/F3 cells
Type: cell-based
Details: MTS assay, 72 hours, Table 10 key
Description: Cell growth inhibition can be assessed by MTS assay or by Cell Titer Glo Luminescent Cell viability assay (Promega®). […] The viability of the cells are then assessed. […] Cell growth inhibition was assessed by MTS assay for Ba/F3, DFCI58-229, and DFCI127c cells, or by Cell Titer Glo Luminescent Cell viability assay (Promega®) for DFC1362JC cells, 3000 Ba/F3 cells were seeded for per well in 96-well plates, and were exposed to representative compounds of the application (3.3 nM to 10 μM) for 72 hours. […]
parameter: EC50

Known EC50 results, listed for orientation:
>  <sample.smiles>
C=CC(=O)Nc1cccc(-n2c(=O)c(Oc3ccc(Cl)cc3F)cc3cnc(Nc4cnn(C)c4)nc32)c1

>  <EC50>
< 200 nM

$$$$
>  <sample.smiles>
C=CC(=O)Nc1cc(Nc2ncc3cc(Oc4ccc(F)cc4)c(=O)n(C)c3n2)ccc1N(C)CCN(C)C

>  <EC50>
< 200 nM

$$$$
>  <sample.smiles>
C=CC(=O)Nc1cc(Nc2ncc3cc(Oc4ccc(F)c(Cl)c4)c(=O)n(C)c3n2)c(OC)cc1N(C)CCN(C)C

>  <EC50>
< 200 nM

$$$$
>  <sample.smiles>
C=CC(=O)Nc1cccc(-n2c(=O)c(Oc3c(F)cc(F)cc3F)cc3cnc(Nc4cnn(C)c4)nc32)c1

>  <EC50>
< 200 nM

$$$$
>  <sample.smiles>
C=CC(=O)Nc1cc(Nc2ncc3cc(Oc4ccc(F)cc4F)c(=O)n(CC(F)(F)F)c3n2)c(OC)cc1N(C)CCN(C)C

>  <EC50>
< 200 nM

$$$$
>  <sample.smiles>
C=CC(=O)N1C[C@H](Cn2c(=O)c(Oc3ccc(F)cc3F)cc3cnc(N)nc32)[C@@H](OC)C1

>  <EC50>
< 200 nM

$$$$
>  <sample.smiles>
C=CC(=O)Nc1cc(Nc2ncc3cc(Oc4ccc(F)cc4F)c(=O)n(C)c3n2)ccc1N(C)CCN(C)C

>  <EC50>
< 200 nM

$$$$
>  <sample.smiles>
C=CC(=O)Nc1ccc(OC)c(Nc2ncc3cc(Oc4ccc(F)cc4F)c(=O)n(CCN(C)C)c3n2)c1

>  <EC50>
< 200 nM

$$$$
>  <sample.smiles>
C=CC(=O)Nc1cc(Nc2ncc3cc(Oc4c(F)cc(F)cc4F)c(=O)n(C)c3n2)c(OC)cc1N(C)CCN(C)C

>  <EC50>
< 200 nM

$$$$
>  <sample.smiles>
C=CC(=O)Nc1cc(Nc2ncc3cc(Oc4ccccc4)c(=O)n(C)c3n2)c(OC)cc1N(C)CCN(C)C

>  <EC50>
< 200 nM

$$$$

What value of measured EC50 is listed for C=CC(=O)Nc1cc(Nc2ncc3cc(Oc4ccc(C)cc4)c(=O)n(C)c3n2)c(OC)cc1N(C)CCN(C)C ?
< 200 nM

// lookup EC50 for C=CC(=O)Nc1cc(Nc2ncc3cc(Oc4ccc(F)cc4)c(=O)n(C)c3n2)c(OC)cc1N(C)CCN(C)C
< 200 nM

Given C=CC(=O)Nc1cc(Nc2ncc3cc(Oc4ccc(F)cc4F)c(=O)n(C)c3n2)c(OC)cc1C1CCNCC1 , state its recorded EC50.
> 1000 nM

Fill in the blank: the reported EC50 of CCC(=O)Nc1cc(Nc2ncc3cc(Oc4ccc(F)cc4F)c(=O)n(C)c3n2)c(OC)cc1N(C)CCN(C)C is ____.
> 1000 nM

Give its EC50 value. Item: C=CC(=O)N1C[C@H](Cn2c(=O)c(Oc3ccc(F)cc3F)cc3cnc(NC(C)=O)nc32)[C@@H](OC)C1
200 to 600 nM

So what's the measured EC50 for this one? C=CC(=O)Nc1cc(Nc2ncc3cc(Oc4ccc(F)cc4F)c(=O)[nH]c3n2)c(OC)cc1N(C)CCN(C)C
< 200 nM

Endpoint output: EC50 of C=CC(=O)Nc1cc(Nc2ncc3cc(Oc4ccc(F)cc4F)c(=O)n(C)c3n2)cnc1N(C)CCN(C)C . Value?
< 200 nM

I'd like to know its EC50. The molecule in question is C=CC(=O)N1C[C@H](Cn2c(=O)c(Oc3ccc(F)cc3F)cc3cnc(Nc4cnn(C)c4)nc32)[C@@H](OC)C1
< 200 nM

// returns reported EC50 for input C=CC(=O)Nc1cccc(-n2c(=O)c(Oc3ccc(F)cc3F)cc3cnc(N)nc32)c1
< 200 nM

Reported EC50, molecule CC#CC(=O)Nc1cc(Nc2ncc3cc(Oc4ccc(F)cc4F)c(=O)n(C)c3n2)c(OC)cc1N(C)CCN(C)C : ____
< 200 nM

Using the record for C=CC(=O)Nc1cc(Nc2ncc3cc(Oc4cc(F)c(F)cc4F)c(=O)n(C)c3n2)c(OC)cc1N(C)CCN(C)C , report its EC50.
< 200 nM

Please look up its EC50: C=CC(=O)Nc1cc(Nc2ncc3cc(Oc4ccc(F)cc4F)c(=O)n(C)c3n2)c(OC)cc1C1CCN(C)CC1
200 to 600 nM

Sample C=CC(=O)Nc1cc(Nc2ncc3cc(Oc4ccc(F)cc4Cl)c(=O)n(C)c3n2)c(OC)cc1N(C)CCN(C)C — what was its EC50?
< 200 nM
